Measured Growth, listed per entry.
- System: Providencia rettgeri NCTC 7 475
- assay-protocol: Color, fluorescence and growth of colonies on Columbia medium with nitroreductase substrate
- Format: cell-based
- Parameters: key: NG: no growth; 0.5: low growth; 1: moderate growth; 2: good growth
- test-conditions: 40 mg substrate in 400 ml Columbia medium, 24 hours at 37° C.
metric: Growth

C[n+]1ccc(C=Cc2ccc([N+](=O)[O-])cc2)c2ccccc21.[I-] [4NSMQ^+I]	2
COc1cc([N+](=O)[O-])ccc1C=Cc1cc[n+](C)c2ccccc12.[I-] [4NMSMQ^+I]	0.5
C[n+]1c(C=Cc2ccc([N+](=O)[O-])cc2)ccc2ccccc21.[I-] [2NSMQ^+I]	2
O=[N+]([O-])c1ccc(C=Cc2ccc3ccccc3n2)cc1 [2NSQ, 2-(4′-nitrostyryl)quinoline]	2

* * *

Measured Growth, listed per entry.
- Test system: Bacillus subtilis NCTC 9 372
- assay-protocol: Color, fluorescence and growth of colonies on Columbia medium with nitroreductase substrate
- Format: cell-based
- Parameters: key: NG: no growth; 0.5: low growth; 1: moderate growth; 2: good growth
- test-conditions: 40 mg substrate in 400 ml Columbia medium, 24 hours at 37° C.
metric: Growth

C[n+]1c(C=Cc2ccc([N+](=O)[O-])cc2)ccc2ccccc21.[I-]	1
O=[N+]([O-])c1ccc(C=Cc2ccc3ccccc3n2)cc1	1
COc1cc([N+](=O)[O-])ccc1C=Cc1cc[n+](C)c2ccccc12.[I-]	2

* * *

Measured Growth, listed per entry.
- Tested on: Yersinia enterocolitica NCTC 11 176
- assay-protocol: Color, fluorescence and growth of colonies on Columbia medium with nitroreductase substrate
- Type: cell-based
- Design: key: NG: no growth; 0.5: low growth; 1: moderate growth; 2: good growth
- test-conditions: 40 mg substrate in 400 ml Columbia medium, 24 hours at 37° C.
metric: Growth

C[n+]1c(C=Cc2ccc([N+](=O)[O-])cc2)ccc2ccccc21.[I-]	2
C[n+]1ccc(C=Cc2ccc([N+](=O)[O-])cc2)c2ccccc21.[I-]	1
O=[N+]([O-])c1ccc(C=Cc2ccc3ccccc3n2)cc1	2
COc1cc([N+](=O)[O-])ccc1C=Cc1cc[n+](C)c2ccccc12.[I-]	2

* * *

- Tested on: Serratia marcescens NCTC 10 211
- assay-protocol: Color, fluorescence and growth of colonies on Columbia medium with nitroreductase substrate
- Format: cell-based
- Set-up: key: NG: no growth; 0.5: low growth; 1: moderate growth; 2: good growth
- test-conditions: 40 mg substrate in 400 ml Columbia medium, 24 hours at 37° C.
metric: Growth

C[n+]1c(C=Cc2ccc([N+](=O)[O-])cc2)ccc2ccccc21.[I-]	2
O=[N+]([O-])c1ccc(C=Cc2ccc3ccccc3n2)cc1	2
C[n+]1ccc(C=Cc2ccc([N+](=O)[O-])cc2)c2ccccc21.[I-]	2
COc1cc([N+](=O)[O-])ccc1C=Cc1cc[n+](C)c2ccccc12.[I-]	2
